biological target: MERTK (UniProt Q12866); test: phosphorylation enrichment, bacterial display (enrichment ratio); higher = better substrate or ligand; peptides without Tyr show the background;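 note: 11-residue human phosphosite peptides and single-mutation variants displayed on the E. coli surface, counted by deep sequencing, each peptide's frequency after selection divided by its frequency in the unselected input library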;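 note: frequency after pTyr selection over input frequency; kinase dosed for 20-30% of maximal phosphorylation in three min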
Sequence (Q12866 whole entry, looked up): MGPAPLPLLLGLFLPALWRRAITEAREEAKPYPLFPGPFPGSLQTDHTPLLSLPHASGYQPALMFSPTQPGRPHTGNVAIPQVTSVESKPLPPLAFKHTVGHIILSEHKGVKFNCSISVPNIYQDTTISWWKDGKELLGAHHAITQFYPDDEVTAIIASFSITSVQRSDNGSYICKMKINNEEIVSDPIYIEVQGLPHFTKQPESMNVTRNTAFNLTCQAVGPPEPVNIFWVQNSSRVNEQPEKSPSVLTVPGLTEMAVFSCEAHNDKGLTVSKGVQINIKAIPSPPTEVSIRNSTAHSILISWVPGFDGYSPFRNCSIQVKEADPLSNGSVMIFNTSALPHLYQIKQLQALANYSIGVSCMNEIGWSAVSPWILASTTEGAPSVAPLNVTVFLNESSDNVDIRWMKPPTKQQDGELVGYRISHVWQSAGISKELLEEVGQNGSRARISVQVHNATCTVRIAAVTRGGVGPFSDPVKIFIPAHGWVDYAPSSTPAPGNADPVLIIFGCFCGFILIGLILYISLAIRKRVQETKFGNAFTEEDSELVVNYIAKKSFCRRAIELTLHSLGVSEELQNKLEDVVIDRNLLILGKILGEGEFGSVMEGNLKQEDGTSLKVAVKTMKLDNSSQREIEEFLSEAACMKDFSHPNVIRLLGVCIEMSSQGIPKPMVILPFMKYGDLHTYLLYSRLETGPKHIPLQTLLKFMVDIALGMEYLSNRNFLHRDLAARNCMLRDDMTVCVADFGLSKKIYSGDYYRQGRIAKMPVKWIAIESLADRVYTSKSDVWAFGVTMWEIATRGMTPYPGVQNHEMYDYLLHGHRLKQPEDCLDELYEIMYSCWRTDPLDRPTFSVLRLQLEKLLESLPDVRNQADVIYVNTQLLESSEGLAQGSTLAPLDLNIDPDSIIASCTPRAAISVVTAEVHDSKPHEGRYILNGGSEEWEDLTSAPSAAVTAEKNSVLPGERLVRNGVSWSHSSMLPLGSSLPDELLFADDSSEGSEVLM
METRIC: phosphorylation enrichment
Give the value as a plain number.

Some sequences with known phosphorylation enrichment results, for comparison:
{"columns": ["SEQUENCE_CONTENT", "phosphorylation enrichment"],
 "data": [
  ["KIIRWYVSSEG [ANK2_Y3907_R3906W]", 0.415],
  ["KKRSSYGNSSD [SELENOK_Y52_R50S]", 0.556],
  ["FEPDAYFDLDQ [ELP5_Y302_D303Y_YF]", 0.477]
]}

Quote phosphorylation enrichment reported for IKIMGYFIRTI [IDS_Y490_S491F] please.
0.514

Quote phosphorylation enrichment reported for DTFDPYLDVAL [USP36_Y268_YF] please.
0.557

Quote phosphorylation enrichment reported for TESNNYIYTTL [FAM83B_Y637_K640T] please.
5.09

Quote phosphorylation enrichment reported for FSNPAYYVLEG [INPPL1_Y986_N982S] please.
6.51

Quote phosphorylation enrichment reported for YRASYYRKGGC [ALK_Y1283] please.
0.561

Quote phosphorylation enrichment reported for SMEMKYLEEKN [ZAP70_Y451_G448E] please.
0.48

Quote phosphorylation enrichment reported for GEVLVYVEDPA [FLNA_Y319] please.
0.478

Quote phosphorylation enrichment reported for EFGFRYELVQY [UGGT2_Y1289_Y1285F] please.
0.338

Quote phosphorylation enrichment reported for CVRTIYTIDGS [DCLK2_Y124_G119C] please.
0.481

Quote phosphorylation enrichment reported for SKKSTYRALLD [GANC_Y43_Q44R] please.
0.421

Quote phosphorylation enrichment reported for DLLMQYPKAQG [FAM83C_Y600] please.
0.356

Quote phosphorylation enrichment reported for EEQFFYEKAIL [BCCIP_Y257_E254Q] please.
0.502

Quote phosphorylation enrichment reported for RAILDYIASKF [GSTA3_Y74_N73D_YF] please.
0.375

Quote phosphorylation enrichment reported for GREAEYSEKHG [EPHB4_Y574_D576E] please.
0.368

Quote phosphorylation enrichment reported for AKKMKYFEGVS [PRKDC_Y682_I680M] please.
0.318

---

Measured phosphorylation enrichment values are reported for all entries that follow.
molecular target: EPHB1 (UniProt P54762); assay: phosphorylation enrichment, bacterial display (enrichment ratio); higher = better substrate or ligand; peptides without Tyr show the background
Sequence (P54762 whole entry, looked up): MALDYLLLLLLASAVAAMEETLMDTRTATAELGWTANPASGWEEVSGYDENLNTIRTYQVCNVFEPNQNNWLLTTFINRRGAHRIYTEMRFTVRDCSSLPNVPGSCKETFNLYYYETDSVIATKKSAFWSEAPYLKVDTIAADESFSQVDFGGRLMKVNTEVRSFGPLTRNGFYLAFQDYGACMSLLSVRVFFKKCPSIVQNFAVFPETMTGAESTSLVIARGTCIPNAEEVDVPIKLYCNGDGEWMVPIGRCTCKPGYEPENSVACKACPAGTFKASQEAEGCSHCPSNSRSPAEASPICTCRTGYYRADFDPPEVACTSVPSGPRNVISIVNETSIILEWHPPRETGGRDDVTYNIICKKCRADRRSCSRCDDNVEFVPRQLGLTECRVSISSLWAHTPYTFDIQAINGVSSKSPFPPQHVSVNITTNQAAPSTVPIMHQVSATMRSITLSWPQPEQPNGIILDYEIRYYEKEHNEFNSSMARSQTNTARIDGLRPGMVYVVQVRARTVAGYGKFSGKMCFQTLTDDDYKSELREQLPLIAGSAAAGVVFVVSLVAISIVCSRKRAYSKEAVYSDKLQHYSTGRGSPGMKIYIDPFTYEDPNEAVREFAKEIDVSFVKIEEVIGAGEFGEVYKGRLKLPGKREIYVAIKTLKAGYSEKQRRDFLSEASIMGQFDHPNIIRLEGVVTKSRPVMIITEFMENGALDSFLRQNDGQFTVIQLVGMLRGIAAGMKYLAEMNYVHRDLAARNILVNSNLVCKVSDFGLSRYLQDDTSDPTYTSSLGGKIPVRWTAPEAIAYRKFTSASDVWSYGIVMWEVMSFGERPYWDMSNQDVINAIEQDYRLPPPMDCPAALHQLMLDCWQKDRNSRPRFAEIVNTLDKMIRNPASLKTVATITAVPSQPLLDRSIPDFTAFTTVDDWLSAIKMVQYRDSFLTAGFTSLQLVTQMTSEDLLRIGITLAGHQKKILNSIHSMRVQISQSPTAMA
Give the value as a plain number.

{"columns": ["SEQUENCE_CONTENT", "OBSERVED_RESULT"],
 "data": [
  ["FFHCTYKQRMI [CLEC12A_Y242_K244Q_YF]", 0.687],
  ["NYYDLYGGEKF [PTPN11_Y66_D61N]", 10.6],
  ["SQQTYYPVSNM [ABCD1_Y181_R182P]", 5.58],
  ["SSQILYKLEQS [THADA_Y701_V699I]", 0.56],
  ["QMRLKYSQSDL [SMC1A_Y714]", 0.335]
]}

# assay system EPHB1 (UniProt P54762): give phosphorylation enrichment of EWLRRYLKNGK [HLA-C_Y195_E197K]
0.373

# assay system EPHB1 (UniProt P54762): give phosphorylation enrichment of MEFAKYGSLRG [RET_Y809_V804M_YF]
0.427

# assay system EPHB1 (UniProt P54762): give phosphorylation enrichment of EVEFQYPFRLH [SYP_Y73_E72Q]
0.64

# assay system EPHB1 (UniProt P54762): give phosphorylation enrichment of ESVNTYLQTSP [NAT1_Y208_M205V]
0.538

# assay system EPHB1 (UniProt P54762): give phosphorylation enrichment of MSSLFYANTLF [HOXB7_Y6_YF]
1.14

# assay system EPHB1 (UniProt P54762): give phosphorylation enrichment of RKKEEYKMALY [F8_Y1990]
0.337

# assay system EPHB1 (UniProt P54762): give phosphorylation enrichment of KFLENYLNCLL [PLD2_Y169_R172C_YF]
0.748

# assay system EPHB1 (UniProt P54762): give phosphorylation enrichment of SLIDGYYRLTA [JAK2_Y372]
0.457

# assay system EPHB1 (UniProt P54762): give phosphorylation enrichment of TDTAAYEERLR [SPTB_Y474_V478L]
0.49

# assay system EPHB1 (UniProt P54762): give phosphorylation enrichment of HLQQSNLPRGT [TEX45_Y396_Y396N]
0.447

# assay system EPHB1 (UniProt P54762): give phosphorylation enrichment of RRGLLYDSDEE [MCM2_Y137]
0.796

# assay system EPHB1 (UniProt P54762): give phosphorylation enrichment of FKPGFYNLKEK [LAMA1_Y490_C485Y_YF]
0.434
